Reported cell viability values for the following molecules.
Test system: MARIMO;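 further: after 48 h exposure read by CellTiter-Glo luminescence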
Assay: cell viability relative to vehicle control; higher = less cytotoxic
Details: 10 µM; SRSF2 genotype: SRSF2 P95H/wt
Where a name gives a salt, the structure may show the parent alone.
QUANTITY: cell viability (%)

>>> test_value("C[C@@H](Oc1cc(-c2cnn(C3CCNCC3)c2)cnc1N)c1c(Cl)ccc(F)c1Cl")
23.6
>>> test_value("COc1ccc(OC)c(C2C(C#N)=C(N)Oc3n[nH]c(-c4ccc5ccccc5c4)c32)c1 (stereo not given)")
98.9
>>> test_value("C[C@H](Nc1ncnc2nc[nH]c12)c1cc2cccc(Cl)c2c(=O)n1-c1ccccc1")
67.6
>>> test_value("CCCCCCCCCCCCCCCC(=O)OCC(O)C1OC(=O)C(O)=C1O [L-Ascorbyl 6-palmitate]")
107
>>> test_value("Cc1ccc(-n2nc(C(C)(C)C)cc2NC(=O)Nc2ccc(OCCN3CCOCC3)c3ccccc23)cc1")
81.8
>>> test_value("CC1=CC(=O)c2ccccc2C1=O")
98.9
>>> test_value("O=C1[C@H]2CCCC[C@H]2C(=O)N1CCCCN1CCN(c2nsc3ccccc23)CC1 [Perospirone hydrochloride]")
71.2
>>> test_value("COc1ccc(Cl)cc1C(=O)NCCc1ccc(S(=O)(=O)NC(=O)NC2CCCCC2)cc1 [Glyburide (Glibenclamide)]")
106
>>> test_value("CC[C@@H]1C(=O)N(C)c2cnc(Nc3ccc(C(=O)NC4CCN(C)CC4)cc3OC)nc2N1C1CCCC1")
6.52
>>> test_value("CC(C)=CCC[C@](C)(O[C@@H]1O[C@H](CO)[C@@H](O)[C@H](O)[C@H]1O)[C@H]1CC[C@]2(C)[C@@H]1[C@H](O)C[C@@H]1[C@@]3(C)CC[C@H](O)C(C)(C)[C@@H]3[C@@H](O[C@@H]3O[C@H](CO)[C@@H](O)[C@H](O)[C@H]3O[C@@H]3O[C@@H](C)[C@H](O)[C@@H](O)[C@H]3O)C[C@]12C [Ginsenoside Re]")
99.2
>>> test_value("C[C@H](CCC(=O)NCC(=O)O)[C@H]1CC[C@H]2[C@@H]3[C@H](O)C[C@@H]4C[C@H](O)CC[C@]4(C)[C@H]3C[C@H](O)[C@]12C")
106
>>> test_value("C1=Cc2ccccc2Nc2ccccc21")
95.5
>>> test_value("CN(C)C(=N)NC(=N)N [Metformin hydrochloride (Glucophage)]")
108
>>> test_value("O=C(O)CCCC[C@@H]1CCSS1 (racemic)")
93.1
>>> test_value("O=c1[nH]cnc2c1ncn2[C@H]1C[C@H](O)[C@@H](CO)O1")
104
>>> test_value("O=C(c1ccc(Cl)cc1)N(Cc1ccccc1)C1CCCCC1")
75.2
>>> test_value("O=C1C[C@@H](c2ccccc2)Oc2cc(O)cc(O)c21")
96.4
>>> test_value("CC(=O)Oc1c(C)c(C)c2c(c1C)CCC(C)(CCC[C@H](C)CCC[C@H](C)CCCC(C)C)O2 (stereo not given in full) [Vitamin E Acetate]")
102
>>> test_value("N[C@@H]1CCCN(c2c(/C=C3\\SC(=O)NC3=O)cccc2-c2ccccc2)C1")
83.9
>>> test_value("CC(C)=CCC[C@](C)(O[C@@H]1O[C@H](CO[C@@H]2O[C@H](CO)[C@@H](O)[C@H](O)[C@H]2O)[C@@H](O)[C@H](O)[C@H]1O)[C@H]1CC[C@]2(C)[C@@H]1[C@H](O)C[C@@H]1[C@@]3(C)CC[C@H](O[C@@H]4O[C@H](CO)[C@@H](O)[C@H](O)[C@H]4O[C@@H]4O[C@H](CO)[C@@H](O)[C@H](O)[C@H]4O)C(C)(C)[C@@H]3CC[C@]12C [Ginsenoside Rb1]")
103
>>> test_value("Cc1cc(C)nc(SCC(=O)Nc2ncc(Cc3cccc4ccccc34)s2)n1")
78.5
>>> test_value("O=C1CC[C@@H](C(=O)N2CSC[C@H]2C(=O)O)N1")
104
>>> test_value("Cc1cccc(Nc2ccncc2S(=O)(=O)NC(=O)NC(C)C)c1 [Torsemide (Demadex)]")
101
>>> test_value("O=S(=O)(N=Cc1c(O)ccc2ccccc12)c1cccs1")
100
>>> test_value("CC1(C)CCC(C)(C)c2cc(NC(=O)c3ccc(C(=O)O)cc3)ccc21")
93.1
>>> test_value("CC(C)c1ccccc1Cc1cc(C(=O)Nc2ccc(S(=O)(=O)c3ccccc3C(C)(C)C)cc2)c(O)c(O)c1O")
17.6
>>> test_value("C=C1CCC[C@]2(C)C[C@]3(O)OC(=O)C(C)=C3C[C@@H]12 [Atractylenolide III]")
101
>>> test_value("COc1cc2c(cc1OC)CN(CCc1ccc(NC(=O)c3cc(OC)c(OC)cc3NC(=O)c3cnc4ccccc4c3)cc1)CC2")
95.3
>>> test_value("CCn1c2ccccc2c2cc(Nc3ccnc(NCCCN4CCOCC4)n3)ccc21")
19.1
>>> test_value("Nc1nc(NCCc2ccc(O)cc2)nc2nc(-c3ccco3)nn12")
102
